Cited source for all entries: patent US20100172907A1

As shown below, each of these binders has a reported Kd value.
# Study target: T1, human Aβ (1-40) peptide (human)
# T1 construct: also called Aβ1-40 fibers
# Assay overview: SPR, kinetic fit, immobilized fibers;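 note: surface plasmon resonance on a Biacore chip bearing in vitro formed Aβ1-40 or Aβ1-42 fibers, KD taken as koff/kon by fitting time-resolved sensor responses, based on total Fab concentration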
Property name: Kd

INSERT INTO assay_data (binder, property_name, observed_result) VALUES
  ('MS-Roche #7.4H2×7.12L2 Fab (Fab, V domains shown, cross-cloned Fab) VH: QLVESGGGLVQPGGSLRLSCAASGFTFSSYAMSWVRQAPGKGLEWVSAINYNGARIYYADSVKGRFTISRDNSKNTLYLQMNSLRAEDTAVYYCARGKGNTHKPYGYVRYFDVWGQGTLVTVSS VL: DIVLTQSPATLSLSPGERATLSCRASQRFFYKYLAWYQQKPGQAPRLLISGSSNRATGVPARFSGSGSGTDFTLTISSLEPEDFAVYYCLQLYNIPNTFGQGTKVEIKR', 'Kd', '1.4 nM'),
  ('MS-Roche #7.4H2×7.2L1 Fab (Fab, V domains shown, cross-cloned Fab; VH entry starts at QLVESGG) VH: QLVESGGGLVQPGGSLRLSCAASGFTFSSYAMSWVRQAPGKGLEWVSAINYNGARIYYADSVKGRFTISRDNSKNTLYLQMNSLRAEDTAVYYCARGKGNTHKPYGYVRYFDVWGQGTLVTVSS VL: DIVLTQSPATLSLSPGERATLSCRASQYVDRTYLAWYQQKPGQAPRLLIYGASSRATGVPARFSGSGSGTDFTLTISSLEPEDFATYYCQQIYSFPHTFGQGTKVEIKR', 'Kd', '1.4 nM'),
  ('MS-Roche #7.11H2×7.2L1(L1) Fab (Fab, V domains shown) VH: QLVESGGGLVQPGGSLRLSCAASGFTFSSYAMSWVRQAPGKGLEWVSAINANGYKKYYADSVKGRFTISRDNSKNTLYLQMNSLRAEDTAVYYCARGKGNTHKPYGYVRYFDVWGQGTLVTVSS VL: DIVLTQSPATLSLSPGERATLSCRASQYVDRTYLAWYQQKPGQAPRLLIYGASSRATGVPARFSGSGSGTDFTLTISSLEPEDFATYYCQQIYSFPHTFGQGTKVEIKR', 'Kd', '1 nM');
